Heads up, these molecules all have Ki values measured for UniProtKB P28221.
Sequence (P28221 whole entry): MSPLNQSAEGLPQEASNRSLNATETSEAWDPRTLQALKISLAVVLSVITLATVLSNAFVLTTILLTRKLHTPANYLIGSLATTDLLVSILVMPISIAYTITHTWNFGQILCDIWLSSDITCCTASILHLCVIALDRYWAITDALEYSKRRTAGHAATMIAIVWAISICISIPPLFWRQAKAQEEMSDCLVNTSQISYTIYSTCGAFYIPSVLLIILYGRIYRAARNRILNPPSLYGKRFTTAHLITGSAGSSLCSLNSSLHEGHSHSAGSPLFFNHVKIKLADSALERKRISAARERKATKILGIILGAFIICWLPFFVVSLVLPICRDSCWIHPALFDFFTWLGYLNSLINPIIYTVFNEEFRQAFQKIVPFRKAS
Answer with the number, then the unit.

Take a look at these entries with their results.
Smi	Study system	Measured value
CCCN(CCC)CCc1c[nH]c2ccc(C(N)=O)cc12	UniProtKB P28221	12.9 nM
c1ccc2c(N3CCNCC3)cccc2c1	UniProtKB P28221	7.41 nM

Hello, I am looking for reported Ki with UniProtKB P28221 for `CN1C[C@H](CNC(=O)OCc2ccccc2)C[C@@H]2c3cccc4c3c(cn4C)C[C@H]21` . Could you help?
0.6 nM

* * *

Heads up, these compounds all have Ki values measured for 5-hydroxytryptamine receptor 1B (Mus musculus, UniProt P28334).

Compound	Experimental readout	Measured value
COc1ccc2[nH]cc(C3=CCNCC3)c2c1	Ki	10 nM

Please go through the list and note Ki for each compound.
1. CC(C)(C)NCC(O)COc1cccc2[nH]c(C#N)cc12 (stereo not given)
2. CC(C)NCC(O)COc1cccc2[nH]ccc12 (stereo not given)
3. NCCc1c[nH]c2ccc(C(N)=O)cc12 [[3H]-5-carboxamidotryptamine]
4. NCCc1c[nH]c2ccc(O)cc12 [[3H]-5-HT]

1. 2.51 nM
2. 63.1 nM
3. 10 nM
4. 39.8 nM

* * *

# Study system: 5-hydroxytryptamine receptor 4 (Cavia porcellus, UniProt O70528)
# Sequence (O70528 whole entry): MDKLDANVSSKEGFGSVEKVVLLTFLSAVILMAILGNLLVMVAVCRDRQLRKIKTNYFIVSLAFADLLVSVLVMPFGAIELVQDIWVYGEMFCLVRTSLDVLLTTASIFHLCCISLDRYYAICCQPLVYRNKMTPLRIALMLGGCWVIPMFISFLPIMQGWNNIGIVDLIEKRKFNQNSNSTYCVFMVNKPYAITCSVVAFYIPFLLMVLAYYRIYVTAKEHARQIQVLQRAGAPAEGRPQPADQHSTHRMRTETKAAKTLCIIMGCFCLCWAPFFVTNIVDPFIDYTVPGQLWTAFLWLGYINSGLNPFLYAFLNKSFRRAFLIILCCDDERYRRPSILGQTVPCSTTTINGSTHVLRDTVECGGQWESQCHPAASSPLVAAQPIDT
pKi: −log10 of the molar value.
Experimental readout: pKi

Could you share which pKi value was measured for NCCc1c[nH]c2ccc(C(N)=O)cc12 [[3H]-5-carboxamidotryptamine] ?
< 5.00

* * *

For each entry below, report its pKi value.
# Study system: 5-hydroxytryptamine receptor 1D (Rattus norvegicus, UniProt P28565)
# Sequence (P28565 whole entry): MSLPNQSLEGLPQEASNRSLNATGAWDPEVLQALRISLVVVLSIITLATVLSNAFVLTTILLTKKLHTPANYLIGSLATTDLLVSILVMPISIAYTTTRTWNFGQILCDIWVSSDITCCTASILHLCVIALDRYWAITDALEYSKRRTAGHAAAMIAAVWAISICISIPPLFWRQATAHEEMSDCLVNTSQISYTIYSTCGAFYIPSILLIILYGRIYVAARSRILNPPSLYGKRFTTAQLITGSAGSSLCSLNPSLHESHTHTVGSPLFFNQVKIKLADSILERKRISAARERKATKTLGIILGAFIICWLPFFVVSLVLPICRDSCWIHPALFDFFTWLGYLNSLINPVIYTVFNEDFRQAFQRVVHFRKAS
Answers are plain numbers, as −log10 of the molar value.

For orientation, consider the following solved cases.
Compound	Study system	pKi
CN1C[C@H](CNC(=O)OCc2ccccc2)C[C@@H]2c3cccc4c3c(cn4C)C[C@H]21	5-hydroxytryptamine receptor 1D (Rattus norvegicus, UniProt P28565)	9.11
CN1C[C@H](C(=O)N[C@]2(C)O[C@@]3(O)[C@@H]4CCCN4C(=O)[C@H](Cc4ccccc4)N3C2=O)C=C2c3cccc4[nH]cc(c34)C[C@H]21	5-hydroxytryptamine receptor 1D (Rattus norvegicus, UniProt P28565)	10.15

Please state, for each entry, its recorded pKi.
1. O=C(CCCN1CCC2(CC1)C(=O)NCN2c1ccccc1)c1ccc(F)cc1
2. CC(C)(C)NCC(O)COc1cccc2[nH]c(C#N)cc12 (stereo unspecified)
3. NCCc1c[nH]c2ccc(C(N)=O)cc12 [[3H]-5-carboxamidotryptamine]
4. FC(F)(F)c1cccc(N2CCNCC2)c1
5. CN1CC(C(=O)N[C@]2(C)O[C@@]3(O)C4CCCN4C(=O)[C@H](Cc4ccccc4)N3C2=O)CC2c3cccc4[nH]cc(c34)CC21 (stereo partly specified)

1: 7.21; 2: 7.44; 3: 9.43; 4: 7.23; 5: 10.22

* * *

Ki, 5-hydroxytryptamine receptor 2B (Mus musculus, UniProt Q02152), per-entry values.

# count of solved cases: 4
Compound	Ki
NCCc1c[nH]c2ccccc12 [1H-indole-3-ethanamine]	200 nM
O=C(CCCN1CCC2(CC1)C(=O)NCN2c1ccccc1)c1ccc(F)cc1	50.1 nM
CC[C@@H](CO)NC(=O)[C@@H]1C=C2c3cccc4c3c(cn4C)C[C@H]2N(C)C1	12.6 nM
Cc1[nH]c2ccc(O)cc2c1CCN	6610 nM

Then this compound:
Entry c1ccc2nc(N3CCNCC3)ccc2c1 [2-Piperazin-1-yl-quinoline (Quipazine)] has what Ki?
6610 nM
